Listed next: entries and their corresponding IC50.
biological target: PRMT5 (Homo sapiens, UniProt O14744); construct: purchased Viva (custom protein); test: PRMT5 biochemical IC50 assay with no cofactor; details: PRMT5, no cofactor; read-out: No Cofactor/rel IC50
Sequence (O14744 whole entry): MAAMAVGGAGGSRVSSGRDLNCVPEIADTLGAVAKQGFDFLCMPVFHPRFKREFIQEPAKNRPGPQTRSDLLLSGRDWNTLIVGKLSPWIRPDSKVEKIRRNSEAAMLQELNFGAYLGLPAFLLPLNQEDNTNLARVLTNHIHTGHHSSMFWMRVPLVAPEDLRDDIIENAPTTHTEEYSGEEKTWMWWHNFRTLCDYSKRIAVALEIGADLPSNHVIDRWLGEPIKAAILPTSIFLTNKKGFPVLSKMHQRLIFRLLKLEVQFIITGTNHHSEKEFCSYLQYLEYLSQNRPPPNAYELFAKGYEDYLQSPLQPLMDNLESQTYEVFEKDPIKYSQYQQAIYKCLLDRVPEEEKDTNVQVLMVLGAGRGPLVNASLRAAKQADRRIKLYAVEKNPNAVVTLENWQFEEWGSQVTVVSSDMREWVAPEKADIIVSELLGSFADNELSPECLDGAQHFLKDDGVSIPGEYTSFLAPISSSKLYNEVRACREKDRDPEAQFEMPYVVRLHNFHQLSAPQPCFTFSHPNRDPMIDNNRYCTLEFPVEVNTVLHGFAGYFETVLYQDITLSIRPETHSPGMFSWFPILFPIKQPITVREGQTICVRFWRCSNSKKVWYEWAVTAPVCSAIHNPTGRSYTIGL
Sequence (Q9BQA1 whole entry partner): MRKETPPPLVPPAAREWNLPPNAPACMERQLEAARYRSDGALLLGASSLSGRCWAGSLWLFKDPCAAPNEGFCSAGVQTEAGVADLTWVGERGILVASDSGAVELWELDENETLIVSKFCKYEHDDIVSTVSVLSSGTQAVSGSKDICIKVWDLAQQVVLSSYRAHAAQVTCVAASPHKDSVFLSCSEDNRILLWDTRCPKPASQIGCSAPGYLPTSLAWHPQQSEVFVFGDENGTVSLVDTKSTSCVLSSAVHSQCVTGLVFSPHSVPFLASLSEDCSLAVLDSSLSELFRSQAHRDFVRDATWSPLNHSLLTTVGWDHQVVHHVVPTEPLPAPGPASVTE

Answered examples (6):
# compound, IC50
records = [
    ("C[C@@H]1CC[C@@H](c2cc(Cl)cc(C(F)(F)F)c2)N(C(=O)C(=O)Nc2cncc(C(N)=O)c2)C1 (single isomer, unassigned)", "> 0.5 µM"),
    ("CC(=O)Oc1ccc([C@H]2CC[C@H](C)CN2C(=O)C(=O)Nc2cnc(N)c(C)c2)cc1 (single isomer, unassigned)", "> 0.5 µM"),
    ("C[C@@H]1CC[C@@H](c2ccccc2)N(C(=O)C(=O)Nc2cncc(C(N)=O)c2)[C@@H]1C (single isomer, unassigned)", "> 0.5 µM"),
    ("C[C@@H]1CC[C@@H](c2ccc(C(F)(F)F)cc2)N(C(=O)C(=O)Nc2cncc(C(N)=O)c2)C1 (single isomer, unassigned) [Compound 508]", "> 0.5 µM"),
    ("Cc1cc(NC(=O)C(=O)N2C[C@@H](C)[C@@H](C)C[C@H]2c2ccccc2)cnc1N (single isomer, unassigned)", "0.05 to 0.5 µM"),
    ("Cc1cc(NC(=O)C(=O)N2C[C@H](C)CC[C@H]2c2ccc3c(cnn3C)c2)cnc1N (racemic)", "0.05 to 0.5 µM"),
]

Output IC50 of COc1cc([C@@H]2CC[C@@H](C)CN2C(=O)C(=O)Nc2cncc(C(N)=O)c2)ccn1 (racemic) [Compound 225]
0.05 to 0.5 µM

Give reported IC50 value for C[C@H]1CC[C@H](c2cn[nH]c2)N(C(=O)C(=O)Nc2cncc(C(N)=O)c2)C1 (single isomer, unassigned)
0.05 to 0.5 µM

Please report IC50 for the following compound: COc1ncc(NC(=O)C(=O)N2C[C@H](C)CC[C@H]2C2CCCCC2)cc1C(N)=O (single isomer, unassigned)
> 0.5 µM

Identify IC50 associated with the compound CC(=O)Nc1ccc([C@@H]2CC[C@@H](C)CN2C(=O)C(=O)Nc2cnc(N)c(C)c2)s1 (single isomer, unassigned)
0.05 to 0.5 µM

Output measured IC50 for this item: Cc1cc(NC(=O)C(=O)N2C[C@H](C)C[C@@H](F)[C@H]2c2ccc(F)cc2)cnc1N (racemic)
0.05 to 0.5 µM

Note down IC50 recorded for C[C@H]1CC[C@H](c2cc(F)c(F)c(Cl)c2)N(C(=O)C(=O)Nc2cncc(C(N)=O)c2)C1 (single isomer, unassigned)
> 0.5 µM
